B1: Nuclear receptor subfamily 4 group A member 2, residues 260 to 336; numbered along this chain, P43354 (parent)
chain: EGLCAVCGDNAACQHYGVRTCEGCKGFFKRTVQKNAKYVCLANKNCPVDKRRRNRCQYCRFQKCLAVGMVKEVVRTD

- Variants of: B1
- ASSAY_TEXT: abundance fitness (aPCA) (normalised: wild type 0, dead -1); higher = more abundant; growth selection in yeast, the domain comes from the species named
- CONDITIONS: Homo sapiens
Outcome label depends on abundance fitness relative to -0.2: at/above gives Condition met, below gives Condition not met.

Please indicate if the recorded abundance fitness for L65N meets or exceeds -0.2.
Condition met

Please indicate if the recorded abundance fitness for D9G meets or exceeds -0.2.
Condition met

Please indicate if the recorded abundance fitness for A42I meets or exceeds -0.2.
Condition met

Please indicate if the recorded abundance fitness for M69R meets or exceeds -0.2.
Condition not met

Please indicate if the recorded abundance fitness for F27R meets or exceeds -0.2.
Condition not met

Please indicate if the recorded abundance fitness for T76E meets or exceeds -0.2.
Condition met

Please indicate if the recorded abundance fitness for V32T meets or exceeds -0.2.
Condition met

Please indicate if the recorded abundance fitness for M69L meets or exceeds -0.2.
Condition met

Please indicate if the recorded abundance fitness for H15C meets or exceeds -0.2.
Condition met

Please indicate if the recorded abundance fitness for C56D meets or exceeds -0.2.
Condition not met

Please indicate if the recorded abundance fitness for L3F meets or exceeds -0.2.
Condition met

Please indicate if the recorded abundance fitness for K63M meets or exceeds -0.2.
Condition met

Please indicate if the recorded abundance fitness for R51M meets or exceeds -0.2.
Condition met

Please indicate if the recorded abundance fitness for V32K meets or exceeds -0.2.
Condition not met

Please indicate if the recorded abundance fitness for E72C meets or exceeds -0.2.
Condition not met

Please indicate if the recorded abundance fitness for V39E meets or exceeds -0.2.
Condition met

Please indicate if the recorded abundance fitness for K71P meets or exceeds -0.2.
Condition met

Please indicate if the recorded abundance fitness for K25F meets or exceeds -0.2.
Condition met

Please indicate if the recorded abundance fitness for V74R meets or exceeds -0.2.
Condition met

Please indicate if the recorded abundance fitness for R53V meets or exceeds -0.2.
Condition met

Please indicate if the recorded abundance fitness for P47V meets or exceeds -0.2.
Condition met

Please indicate if the recorded abundance fitness for N43R meets or exceeds -0.2.
Condition met

Please indicate if the recorded abundance fitness for V48G meets or exceeds -0.2.
Condition not met

Please indicate if the recorded abundance fitness for A36E meets or exceeds -0.2.
Condition met

Please indicate if the recorded abundance fitness for E22I meets or exceeds -0.2.
Condition not met

Please indicate if the recorded abundance fitness for E22F meets or exceeds -0.2.
Condition met

Please indicate if the recorded abundance fitness for Q62D meets or exceeds -0.2.
Condition met

Please indicate if the recorded abundance fitness for F61C meets or exceeds -0.2.
Condition not met

Please indicate if the recorded abundance fitness for T76R meets or exceeds -0.2.
Condition met

Please indicate if the recorded abundance fitness for K71G meets or exceeds -0.2.
Condition met

Please indicate if the recorded abundance fitness for R53F meets or exceeds -0.2.
Condition met

Please indicate if the recorded abundance fitness for K37M meets or exceeds -0.2.
Condition met

Please indicate if the recorded abundance fitness for V67A meets or exceeds -0.2.
Condition met

Please indicate if the recorded abundance fitness for V18Q meets or exceeds -0.2.
Condition met

Please indicate if the recorded abundance fitness for G26M meets or exceeds -0.2.
Condition not met

Please indicate if the recorded abundance fitness for C13F meets or exceeds -0.2.
Condition met

Please indicate if the recorded abundance fitness for P47R meets or exceeds -0.2.
Condition met

Please indicate if the recorded abundance fitness for R75C meets or exceeds -0.2.
Condition met

Please indicate if the recorded abundance fitness for L41H meets or exceeds -0.2.
Condition met

Please indicate if the recorded abundance fitness for K29H meets or exceeds -0.2.
Condition met

Please indicate if the recorded abundance fitness for L65A meets or exceeds -0.2.
Condition met

Please indicate if the recorded abundance fitness for R75G meets or exceeds -0.2.
Condition met

Please indicate if the recorded abundance fitness for G68M meets or exceeds -0.2.
Condition met

Please indicate if the recorded abundance fitness for G17Q meets or exceeds -0.2.
Condition met

Please indicate if the recorded abundance fitness for C64A meets or exceeds -0.2.
Condition met

Please indicate if the recorded abundance fitness for N43P meets or exceeds -0.2.
Condition not met

Please indicate if the recorded abundance fitness for Q14D meets or exceeds -0.2.
Condition met

Please indicate if the recorded abundance fitness for M69A meets or exceeds -0.2.
Condition met

Please indicate if the recorded abundance fitness for N35T meets or exceeds -0.2.
Condition met

Please indicate if the recorded abundance fitness for K44W meets or exceeds -0.2.
Condition met

Please indicate if the recorded abundance fitness for Q14I meets or exceeds -0.2.
Condition not met

Please indicate if the recorded abundance fitness for D49L meets or exceeds -0.2.
Condition not met

Please indicate if the recorded abundance fitness for G23S meets or exceeds -0.2.
Condition met

Please indicate if the recorded abundance fitness for N35K meets or exceeds -0.2.
Condition met

Please indicate if the recorded abundance fitness for V67F meets or exceeds -0.2.
Condition not met

Please indicate if the recorded abundance fitness for R75D meets or exceeds -0.2.
Condition met

Please indicate if the recorded abundance fitness for V18L meets or exceeds -0.2.
Condition met

Please indicate if the recorded abundance fitness for Q57V meets or exceeds -0.2.
Condition met

Please indicate if the recorded abundance fitness for K29T meets or exceeds -0.2.
Condition met

Please indicate if the recorded abundance fitness for A36F meets or exceeds -0.2.
Condition met

Please indicate if the recorded abundance fitness for L41E meets or exceeds -0.2.
Condition met

Please indicate if the recorded abundance fitness for K44V meets or exceeds -0.2.
Condition not met

Please indicate if the recorded abundance fitness for R75T meets or exceeds -0.2.
Condition met

Please indicate if the recorded abundance fitness for K37G meets or exceeds -0.2.
Condition met

Please indicate if the recorded abundance fitness for G68V meets or exceeds -0.2.
Condition not met

Please indicate if the recorded abundance fitness for R75Y meets or exceeds -0.2.
Condition met

Please indicate if the recorded abundance fitness for V73D meets or exceeds -0.2.
Condition met

Please indicate if the recorded abundance fitness for C40R meets or exceeds -0.2.
Condition not met

Please indicate if the recorded abundance fitness for F61G meets or exceeds -0.2.
Condition not met

Please indicate if the recorded abundance fitness for K37P meets or exceeds -0.2.
Condition met

Please indicate if the recorded abundance fitness for C56A meets or exceeds -0.2.
Condition not met

Please indicate if the recorded abundance fitness for N35D meets or exceeds -0.2.
Condition met

Please indicate if the recorded abundance fitness for H15Q meets or exceeds -0.2.
Condition not met

Please indicate if the recorded abundance fitness for K25V meets or exceeds -0.2.
Condition met

Please indicate if the recorded abundance fitness for K44A meets or exceeds -0.2.
Condition not met

Please indicate if the recorded abundance fitness for F61S meets or exceeds -0.2.
Condition not met

Please indicate if the recorded abundance fitness for F28L meets or exceeds -0.2.
Condition met

Please indicate if the recorded abundance fitness for L41P meets or exceeds -0.2.
Condition met

Please indicate if the recorded abundance fitness for F27K meets or exceeds -0.2.
Condition not met

Please indicate if the recorded abundance fitness for Q57M meets or exceeds -0.2.
Condition met

Please indicate if the recorded abundance fitness for K37V meets or exceeds -0.2.
Condition met

Please indicate if the recorded abundance fitness for Q62I meets or exceeds -0.2.
Condition not met

Please indicate if the recorded abundance fitness for V74K meets or exceeds -0.2.
Condition met

Please indicate if the recorded abundance fitness for V48F meets or exceeds -0.2.
Condition not met

Please indicate if the recorded abundance fitness for A36D meets or exceeds -0.2.
Condition met

Please indicate if the recorded abundance fitness for R53D meets or exceeds -0.2.
Condition met

Please indicate if the recorded abundance fitness for K44G meets or exceeds -0.2.
Condition met

Please indicate if the recorded abundance fitness for A42G meets or exceeds -0.2.
Condition met

Please indicate if the recorded abundance fitness for T76C meets or exceeds -0.2.
Condition met
